These measurements were taken from ChEMBL document CHEMBL1155063.

test system: MDA-MB-435; experiment: Cytotoxicity against human MDA-MB-435 cells at 10 uM after 48 hrs by MTT assay; assay type: functional; conditions: MDA-MB-435, 48 h
Parameter measured: growth percent at 10 µM (%)

>>> result("O=C(CCN1CCCC1)Nc1ccc2c(c1)C(=O)c1cc(NC(=O)CCN3CCCC3)ccc1C2=O")
68.8
>>> result("CC(=O)Nc1ccc2c(c1)C(=O)c1cc(NC(C)=O)ccc1C2=O")
109
>>> result("O=C1c2ccc(NC(=O)C3CC3)cc2C(=O)c2cc(NC(=O)C3CC3)ccc21")
97.3
>>> result("CN(C)CC(=O)Nc1ccc2c(c1)C(=O)c1cc(NC(=O)CN(C)C)ccc1C2=O")
68.4
>>> result("CCN(CC)CCC(=O)Nc1ccc2c(c1)C(=O)c1cc(NC(=O)CCN(CC)CC)ccc1C2=O")
71.1

----------
molecular target: Telomerase reverse transcriptase (Homo sapiens); assay: Effect on human TERT expressed in BJ1 cells at 10 uM after 24 hrs by SEAP assay relative to control; conditions: BJ
Sequence (O14746 whole entry): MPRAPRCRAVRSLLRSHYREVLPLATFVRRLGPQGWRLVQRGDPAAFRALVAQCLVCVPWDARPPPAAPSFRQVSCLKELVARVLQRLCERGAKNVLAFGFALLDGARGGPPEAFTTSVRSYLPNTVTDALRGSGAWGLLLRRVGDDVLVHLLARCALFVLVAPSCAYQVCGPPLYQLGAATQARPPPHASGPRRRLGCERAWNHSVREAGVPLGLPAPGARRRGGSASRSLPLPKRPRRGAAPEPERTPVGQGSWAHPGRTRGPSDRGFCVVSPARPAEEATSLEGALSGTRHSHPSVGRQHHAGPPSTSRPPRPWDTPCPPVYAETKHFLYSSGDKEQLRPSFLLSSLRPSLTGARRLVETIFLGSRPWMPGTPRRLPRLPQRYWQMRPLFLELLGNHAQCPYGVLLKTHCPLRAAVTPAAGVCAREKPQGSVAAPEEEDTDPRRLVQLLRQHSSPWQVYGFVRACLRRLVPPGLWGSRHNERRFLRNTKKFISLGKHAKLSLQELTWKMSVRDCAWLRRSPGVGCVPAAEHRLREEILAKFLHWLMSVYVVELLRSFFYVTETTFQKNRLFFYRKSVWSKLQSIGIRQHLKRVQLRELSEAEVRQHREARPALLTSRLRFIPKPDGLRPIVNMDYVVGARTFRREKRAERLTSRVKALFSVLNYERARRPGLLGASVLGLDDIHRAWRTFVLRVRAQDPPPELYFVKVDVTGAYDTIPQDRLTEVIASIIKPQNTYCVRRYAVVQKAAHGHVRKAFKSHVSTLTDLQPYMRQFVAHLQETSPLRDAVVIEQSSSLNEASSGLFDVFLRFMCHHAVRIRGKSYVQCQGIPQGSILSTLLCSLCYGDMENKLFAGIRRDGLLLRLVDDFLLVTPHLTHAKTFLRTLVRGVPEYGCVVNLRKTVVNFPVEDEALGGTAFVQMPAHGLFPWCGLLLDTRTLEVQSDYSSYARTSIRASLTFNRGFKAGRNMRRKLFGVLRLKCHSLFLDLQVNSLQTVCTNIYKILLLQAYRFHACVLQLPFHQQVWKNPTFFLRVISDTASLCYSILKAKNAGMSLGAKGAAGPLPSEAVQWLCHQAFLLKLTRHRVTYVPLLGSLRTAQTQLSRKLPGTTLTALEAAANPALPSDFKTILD
Listed next: entries and their corresponding residual activity.
Parameter measured: residual activity (%)

>>> result("CN(C)CCC(=O)Nc1ccc2c(c1)C(=O)c1cc(NC(=O)CCN(C)C)ccc1C2=O")
61
>>> result("O=C(CCc1ccccc1)Nc1ccc2c(c1)C(=O)c1cc(NC(=O)CCc3ccccc3)ccc1C2=O")
92
>>> result("CCNCC(=O)Nc1ccc2c(c1)C(=O)c1cc(NC(=O)CNCC)ccc1C2=O")
41
>>> result("CCCNCCC(=O)Nc1ccc2c(c1)C(=O)c1cc(NC(=O)CCNCCC)ccc1C2=O")
133
>>> result("CN1CCN(CCC(=O)Nc2ccc3c(c2)C(=O)c2cc(NC(=O)CCN4CCN(C)CC4)ccc2C3=O)CC1")
138
>>> result("CCN(CC)CCC(=O)Nc1ccc2c(c1)C(=O)c1cc(NC(=O)CCN(CC)CC)ccc1C2=O")
49
>>> result("CC(C)CNCC(=O)Nc1ccc2c(c1)C(=O)c1cc(NC(=O)CNCC(C)C)ccc1C2=O")
44
>>> result("O=C(CCCCl)Nc1ccc2c(c1)C(=O)c1cc(NC(=O)CCCCl)ccc1C2=O")
42
>>> result("O=C1c2ccc(NC(=O)C3CCCCC3)cc2C(=O)c2cc(NC(=O)C3CCCCC3)ccc21")
14

----------
target: Telomerase reverse transcriptase (Homo sapiens); experiment: Effect on human TERT expressed in BJ1 cells at 10 uM after 24 hrs by SEAP assay relative to control; settings: BJ
Listing: residual activity of selected molecules
Parameter measured: residual activity (%)

>>> result("O=C(CCl)Nc1ccc2c(c1)C(=O)c1cc(NC(=O)CCl)ccc1C2=O")
69
>>> result("CN(C)CC(=O)Nc1ccc2c(c1)C(=O)c1cc(NC(=O)CN(C)C)ccc1C2=O")
44
>>> result("O=C(Nc1ccc2c(c1)C(=O)c1cc(NC(=O)c3ccccc3)ccc1C2=O)c1ccccc1")
72
>>> result("CCN(CC)CC(=O)Nc1ccc2c(c1)C(=O)c1cc(NC(=O)CN(CC)CC)ccc1C2=O")
131
>>> result("O=C(Cc1ccccc1)Nc1ccc2c(c1)C(=O)c1cc(NC(=O)Cc3ccccc3)ccc1C2=O")
79

----------
tested on: MOLT-4; experiment: Cytotoxicity against human MOLT4 cells at 10 uM after 48 hrs by MTT assay; assay type: functional; conditions: MOLT-4, 48 h
Hi! Just check whether growth percent at 10 µM is below 30%. Below gives met, equal or above gives not met.

>>> answer_label("O=C(CCN1CCCC1)Nc1ccc2c(c1)C(=O)c1cc(NC(=O)CCN3CCCC3)ccc1C2=O")
"met"
>>> answer_label("O=C1c2ccc(NC(=O)C3CC3)cc2C(=O)c2cc(NC(=O)C3CC3)ccc21")
"not met"
>>> answer_label("CCN(CC)CCC(=O)Nc1ccc2c(c1)C(=O)c1cc(NC(=O)CCN(CC)CC)ccc1C2=O")
"met"
>>> answer_label("CC(=O)Nc1ccc2c(c1)C(=O)c1cc(NC(C)=O)ccc1C2=O")
"not met"

----------
test: Cytotoxicity against human TERT immortalized BJ1 cells at 1 uM after 48 hrs by MTT assay relative to control; format: cell-based, BJ
Parameter measured: viability at 48 h, 1 µM (%)

>>> result("CC(C)CNCC(=O)Nc1ccc2c(c1)C(=O)c1cc(NC(=O)CNCC(C)C)ccc1C2=O")
107
>>> result("O=C(Nc1ccc2c(c1)C(=O)c1cc(NC(=O)c3ccccc3)ccc1C2=O)c1ccccc1")
92
>>> result("Nc1ccc2c(c1)C(=O)c1cc(N)ccc1C2=O")
95
>>> result("CCNCCC(=O)Nc1ccc2c(c1)C(=O)c1cc(NC(=O)CCNCC)ccc1C2=O")
82
>>> result("CCN(CC)CC(=O)Nc1ccc2c(c1)C(=O)c1cc(NC(=O)CN(CC)CC)ccc1C2=O")
116
>>> result("CCCNCC(=O)Nc1ccc2c(c1)C(=O)c1cc(NC(=O)CNCCC)ccc1C2=O")
96
>>> result("O=C1c2ccc(NC(=O)C3CC3)cc2C(=O)c2cc(NC(=O)C3CC3)ccc21")
60
>>> result("O=C(CN1CCNCC1)Nc1ccc2c(c1)C(=O)c1cc(NC(=O)CN3CCNCC3)ccc1C2=O")
88
>>> result("O=C1c2ccc([N+](=O)[O-])cc2C(=O)c2cc([N+](=O)[O-])ccc21")
91
>>> result("CC(=O)Nc1ccc2c(c1)C(=O)c1cc(NC(C)=O)ccc1C2=O")
106
>>> result("O=C(CCl)Nc1ccc2c(c1)C(=O)c1cc(NC(=O)CCl)ccc1C2=O")
105
>>> result("O=C(CCN1CCNCC1)Nc1ccc2c(c1)C(=O)c1cc(NC(=O)CCN3CCNCC3)ccc1C2=O")
96
>>> result("O=C1c2ccc(NC(=O)C3CCCC3)cc2C(=O)c2cc(NC(=O)C3CCCC3)ccc21")
77
>>> result("O=C(CN1CCCCC1)Nc1ccc2c(c1)C(=O)c1cc(NC(=O)CN3CCCCC3)ccc1C2=O")
89
>>> result("CCCCNCC(=O)Nc1ccc2c(c1)C(=O)c1cc(NC(=O)CNCCCC)ccc1C2=O")
103
>>> result("CCCC(=O)Nc1ccc2c(c1)C(=O)c1cc(NC(=O)CCC)ccc1C2=O")
84
>>> result("CCCCNCCC(=O)Nc1ccc2c(c1)C(=O)c1cc(NC(=O)CCNCCCC)ccc1C2=O")
80
>>> result("O=C(CCCl)Nc1ccc2c(c1)C(=O)c1cc(NC(=O)CCCl)ccc1C2=O")
77
>>> result("O=C(CN1CCCC1)Nc1ccc2c(c1)C(=O)c1cc(NC(=O)CN3CCCC3)ccc1C2=O")
99
>>> result("CCNCC(=O)Nc1ccc2c(c1)C(=O)c1cc(NC(=O)CNCC)ccc1C2=O")
72
>>> result("CN(C)CC(=O)Nc1ccc2c(c1)C(=O)c1cc(NC(=O)CN(C)C)ccc1C2=O")
96
>>> result("O=C(CCN1CCCCC1)Nc1ccc2c(c1)C(=O)c1cc(NC(=O)CCN3CCCCC3)ccc1C2=O")
92
>>> result("CN1CCN(CCC(=O)Nc2ccc3c(c2)C(=O)c2cc(NC(=O)CCN4CCN(C)CC4)ccc2C3=O)CC1")
95
>>> result("O=C(CCc1ccccc1)Nc1ccc2c(c1)C(=O)c1cc(NC(=O)CCc3ccccc3)ccc1C2=O")
89
>>> result("CN(C)CCC(=O)Nc1ccc2c(c1)C(=O)c1cc(NC(=O)CCN(C)C)ccc1C2=O")
94

----------
assay: Cytotoxicity against human TERT immortalized BJ1 cells at 100 uM after 48 hrs by MTT assay relative to control; format: cell-based, BJ
Parameter measured: viability at 48 h, 100 µM

>>> result("O=C(Cc1ccccc1)Nc1ccc2c(c1)C(=O)c1cc(NC(=O)Cc3ccccc3)ccc1C2=O")
"86%"
>>> result("O=C(CCCl)Nc1ccc2c(c1)C(=O)c1cc(NC(=O)CCCl)ccc1C2=O")
"39%"
>>> result("O=C(CN1CCCCC1)Nc1ccc2c(c1)C(=O)c1cc(NC(=O)CN3CCCCC3)ccc1C2=O")
"22%"
>>> result("CCC(=O)Nc1ccc2c(c1)C(=O)c1cc(NC(=O)CC)ccc1C2=O")
"48%"
>>> result("CN1CCN(CCC(=O)Nc2ccc3c(c2)C(=O)c2cc(NC(=O)CCN4CCN(C)CC4)ccc2C3=O)CC1")
"61%"
>>> result("CN(C)CC(=O)Nc1ccc2c(c1)C(=O)c1cc(NC(=O)CN(C)C)ccc1C2=O")
"39%"
>>> result("CN1CCN(CC(=O)Nc2ccc3c(c2)C(=O)c2cc(NC(=O)CN4CCN(C)CC4)ccc2C3=O)CC1")
"47%"
>>> result("O=C1c2ccc(NC(=O)C3CCCC3)cc2C(=O)c2cc(NC(=O)C3CCCC3)ccc21")
"58%"
>>> result("CCCC(=O)Nc1ccc2c(c1)C(=O)c1cc(NC(=O)CCC)ccc1C2=O")
"50%"
>>> result("O=C(CN1CCNCC1)Nc1ccc2c(c1)C(=O)c1cc(NC(=O)CN3CCNCC3)ccc1C2=O")
"76%"
>>> result("O=C(CCCCl)Nc1ccc2c(c1)C(=O)c1cc(NC(=O)CCCCl)ccc1C2=O")
"58%"
>>> result("CC(=O)Nc1ccc2c(c1)C(=O)c1cc(NC(C)=O)ccc1C2=O")
"91%"
>>> result("CCCCNCC(=O)Nc1ccc2c(c1)C(=O)c1cc(NC(=O)CNCCCC)ccc1C2=O")
"43%"
>>> result("O=C1c2ccc(NC(=O)C3CC3)cc2C(=O)c2cc(NC(=O)C3CC3)ccc21")
"47%"
>>> result("CC(C)NCC(=O)Nc1ccc2c(c1)C(=O)c1cc(NC(=O)CNC(C)C)ccc1C2=O")
"39%"
>>> result("CCCCNCCC(=O)Nc1ccc2c(c1)C(=O)c1cc(NC(=O)CCNCCCC)ccc1C2=O")
"40%"
>>> result("O=C(CCN1CCCC1)Nc1ccc2c(c1)C(=O)c1cc(NC(=O)CCN3CCCC3)ccc1C2=O")
"39%"
>>> result("CCN(CC)CC(=O)Nc1ccc2c(c1)C(=O)c1cc(NC(=O)CN(CC)CC)ccc1C2=O")
"50%"
>>> result("CCCNCCC(=O)Nc1ccc2c(c1)C(=O)c1cc(NC(=O)CCNCCC)ccc1C2=O")
"38%"
>>> result("O=C(CCc1ccccc1)Nc1ccc2c(c1)C(=O)c1cc(NC(=O)CCc3ccccc3)ccc1C2=O")
"44%"
>>> result("O=C(CN1CCCC1)Nc1ccc2c(c1)C(=O)c1cc(NC(=O)CN3CCCC3)ccc1C2=O")
"39%"
>>> result("O=C(CCN1CCNCC1)Nc1ccc2c(c1)C(=O)c1cc(NC(=O)CCN3CCNCC3)ccc1C2=O")
"88%"
>>> result("O=C(Nc1ccc2c(c1)C(=O)c1cc(NC(=O)c3ccccc3)ccc1C2=O)c1ccccc1")
"97%"
>>> result("Nc1ccc2c(c1)C(=O)c1cc(N)ccc1C2=O")
"80%"
>>> result("O=C(CCN1CCCCC1)Nc1ccc2c(c1)C(=O)c1cc(NC(=O)CCN3CCCCC3)ccc1C2=O")
"41%"
>>> result("O=C(CCl)Nc1ccc2c(c1)C(=O)c1cc(NC(=O)CCl)ccc1C2=O")
"88%"
>>> result("O=C1c2ccc([N+](=O)[O-])cc2C(=O)c2cc([N+](=O)[O-])ccc21")
"86%"
>>> result("CCNCC(=O)Nc1ccc2c(c1)C(=O)c1cc(NC(=O)CNCC)ccc1C2=O")
"37%"
>>> result("CC(C)CNCC(=O)Nc1ccc2c(c1)C(=O)c1cc(NC(=O)CNCC(C)C)ccc1C2=O")
"39%"
>>> result("CCNCCC(=O)Nc1ccc2c(c1)C(=O)c1cc(NC(=O)CCNCC)ccc1C2=O")
"42%"
>>> result("CN(C)CCC(=O)Nc1ccc2c(c1)C(=O)c1cc(NC(=O)CCN(C)C)ccc1C2=O")
"22%"
>>> result("CCN(CC)CCC(=O)Nc1ccc2c(c1)C(=O)c1cc(NC(=O)CCN(CC)CC)ccc1C2=O")
"36%"
>>> result("CCCNCC(=O)Nc1ccc2c(c1)C(=O)c1cc(NC(=O)CNCCC)ccc1C2=O")
"42%"
>>> result("O=C1c2ccc(NC(=O)C3CCCCC3)cc2C(=O)c2cc(NC(=O)C3CCCCC3)ccc21")
"64%"
